- Measured Target: MINK1 (human) (UniProt Q8N4C8)
- Sequence (Q8N4C8 whole entry, looked up): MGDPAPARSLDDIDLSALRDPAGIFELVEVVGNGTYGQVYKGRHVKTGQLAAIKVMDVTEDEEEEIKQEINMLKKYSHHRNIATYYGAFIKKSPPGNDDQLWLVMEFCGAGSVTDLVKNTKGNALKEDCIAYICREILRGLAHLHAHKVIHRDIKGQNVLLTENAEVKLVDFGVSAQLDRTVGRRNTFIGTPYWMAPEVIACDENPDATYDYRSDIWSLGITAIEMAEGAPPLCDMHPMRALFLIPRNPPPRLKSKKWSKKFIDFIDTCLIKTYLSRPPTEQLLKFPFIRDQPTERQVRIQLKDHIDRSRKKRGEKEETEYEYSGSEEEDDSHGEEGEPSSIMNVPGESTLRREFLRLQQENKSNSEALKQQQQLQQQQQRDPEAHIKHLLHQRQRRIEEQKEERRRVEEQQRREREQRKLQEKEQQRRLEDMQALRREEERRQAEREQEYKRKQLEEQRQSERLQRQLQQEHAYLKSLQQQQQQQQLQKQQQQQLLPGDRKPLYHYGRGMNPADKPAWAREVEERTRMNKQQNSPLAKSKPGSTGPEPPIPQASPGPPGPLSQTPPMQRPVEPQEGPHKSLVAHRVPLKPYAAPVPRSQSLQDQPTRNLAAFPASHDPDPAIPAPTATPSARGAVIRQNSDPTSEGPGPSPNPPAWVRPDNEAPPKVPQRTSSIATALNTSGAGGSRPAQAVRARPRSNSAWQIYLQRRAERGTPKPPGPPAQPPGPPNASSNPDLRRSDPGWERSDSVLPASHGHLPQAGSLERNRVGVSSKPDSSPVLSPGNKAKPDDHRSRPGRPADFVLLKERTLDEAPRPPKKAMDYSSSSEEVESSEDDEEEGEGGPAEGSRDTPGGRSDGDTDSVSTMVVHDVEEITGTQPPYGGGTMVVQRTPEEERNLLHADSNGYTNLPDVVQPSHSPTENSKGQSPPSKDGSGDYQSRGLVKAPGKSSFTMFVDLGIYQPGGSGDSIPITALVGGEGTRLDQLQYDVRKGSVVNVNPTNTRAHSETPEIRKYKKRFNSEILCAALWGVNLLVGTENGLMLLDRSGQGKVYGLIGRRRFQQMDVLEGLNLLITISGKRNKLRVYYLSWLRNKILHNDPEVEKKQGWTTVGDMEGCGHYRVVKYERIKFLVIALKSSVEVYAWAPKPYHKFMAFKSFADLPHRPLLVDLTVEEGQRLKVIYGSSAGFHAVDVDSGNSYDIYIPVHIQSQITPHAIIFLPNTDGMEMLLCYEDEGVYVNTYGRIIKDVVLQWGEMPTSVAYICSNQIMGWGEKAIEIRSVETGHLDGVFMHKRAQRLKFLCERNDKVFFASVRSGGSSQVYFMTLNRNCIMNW
- Method: KINOMEscan competition binding
- Test Settings: compound 10.0 µM
Classify by kinase still bound, per cent of control. Ranges: lowest (below 20%), middle (20% to below 30%), highest (30% or more)

molecule=CN1CCN(c2ccc(C(=O)Nc3ncc4c(n3)N(C)c3ccccc3C(=O)N4C)cc2)CC1 measured_target="MINK1 (human) (UniProt Q8N4C8)" class_name=highest
molecule=O=C1NC(=O)/C(=C/c2c[nH]c(=O)c(-c3ccc(N4CCNCC4)nc3)c2)S1 measured_target="MINK1 (human) (UniProt Q8N4C8)" class_name=highest
molecule=N=C1NC(=O)/C(=C/c2ccc(-c3ccc(F)cc3O)o2)S1 measured_target="MINK1 (human) (UniProt Q8N4C8)" class_name=middle
molecule="COc1cc(N2CCN(C)CC2)ccc1Nc1ncc2c(n1)N(C1CCCC1)C(C)CC(=O)N2C (stereo not given)" measured_target="MINK1 (human) (UniProt Q8N4C8)" class_name=highest
molecule=COc1cc(N2CCN(C)CC2)ccc1Nc1ncc2c(n1)Nc1ccccc1NC2=O measured_target="MINK1 (human) (UniProt Q8N4C8)" class_name=highest
molecule=N=C1NC(=O)/C(=C/c2ccc(-c3ccccc3O)o2)S1 measured_target="MINK1 (human) (UniProt Q8N4C8)" class_name=lowest
molecule=CN1C(=O)[C@H]2CCC[C@H]2N(C2CCCC2)c2nc(Nc3ccc4ncccc4c3)ncc21 measured_target="MINK1 (human) (UniProt Q8N4C8)" class_name=lowest
molecule=CS(=O)(=O)Nc1ccc(-c2cc(/C=C3\SC(=N)NC3=O)c[nH]c2=O)cc1 measured_target="MINK1 (human) (UniProt Q8N4C8)" class_name=lowest
molecule=N=C1NC(=O)/C(=C/c2c[nH]c(=O)c(-c3ccc(S(N)(=O)=O)cc3)c2)S1 measured_target="MINK1 (human) (UniProt Q8N4C8)" class_name=middle
molecule="COc1cc(C(=O)NC2CCN(C)CC2)ccc1Nc1ncc2c(n1)N(C1CCCC1)CC(C)C(=O)N2C (stereo not given)" measured_target="MINK1 (human) (UniProt Q8N4C8)" class_name=highest
molecule=CS(=O)(=O)Nc1ccc(-c2cncc(/C=C3\SC(=N)NC3=O)c2)cc1 measured_target="MINK1 (human) (UniProt Q8N4C8)" class_name=lowest
molecule=COc1cc(N2CCN(C)CC2)ccc1Nc1ncc2c(n1)N(C)c1sccc1C(=O)N2C measured_target="MINK1 (human) (UniProt Q8N4C8)" class_name=highest
molecule="CS(=O)C1=NC(=O)/C(=C/c2ccc(-c3ccc(S(N)(=O)=O)cc3)o2)S1 (stereo not given)" measured_target="MINK1 (human) (UniProt Q8N4C8)" class_name=highest
molecule=CS(=O)(=O)Nc1ccc(-c2ncc(/C=C3\SC(=N)NC3=O)s2)cc1 measured_target="MINK1 (human) (UniProt Q8N4C8)" class_name=lowest
molecule=N=C1NC(=O)/C(=C/c2ccc(-c3cnc4ccccc4c3)o2)S1 measured_target="MINK1 (human) (UniProt Q8N4C8)" class_name=lowest
molecule=COc1cc(N2CCC(O)CC2)ccc1Nc1ncc2c(n1)N1CCc3cccc(c31)C(=O)N2C measured_target="MINK1 (human) (UniProt Q8N4C8)" class_name=highest
molecule=N=C1NC(=O)/C(=C/c2c[nH]c(=O)c(-c3ccc(N4CCNCC4)nc3)c2)S1 measured_target="MINK1 (human) (UniProt Q8N4C8)" class_name=middle
molecule=CC(=O)Nc1ccc(-c2ccc(/C=C3\SC(=N)NC3=O)o2)c(O)c1 measured_target="MINK1 (human) (UniProt Q8N4C8)" class_name=highest
